# Tested on: Cyperus iria
# protocol: Post-emergence herbicidal activity against Cyperus iria assessed as growth inhibition at emulsified concentrate of 150 g/ai ha after 15 days by greenhouse test
# Type: functional
observed property: inhibition (INH) (%)
Provide the reading as a plain figure in %.

Record excerpt, results attached:
CCCOC(=O)CSc1nc2cc(-n3nc(C(C)(C)C)oc3=O)c(F)cc2s1: 60
CCOC(=O)CSc1nc2cc(-n3nc(C(C)(C)C)oc3=O)c(F)cc2s1: 70
CCOC(=O)C(C)Sc1nc2cc(-n3nc(C(C)(C)C)oc3=O)c(Cl)cc2s1 (stereo not drawn): 70

We next turn to a different molecule, shown below.
### Prompt # query: inhibition (INH) of entry CCOC(=O)CCSc1nc2cc(-n3nc(C(C)(C)C)oc3=O)c(Cl)cc2s1
### Response 60
